target: HIV-1 HXB2 envelope glycoprotein gp41 (N-trimer of the prehairpin intermediate) (HIV-1 strain HXB2, UniProt P04578 512-856); assay: cell-based or functional assay
Bridges are numbered along the chain shown (N, C = ends). [ ]: non-standard residue; d: D form.
readout_kind: IC50, HXB2 pseudovirion entry (nM)
Numbers only, in nM.

binder	units_of_measure	value_reported
Ac-G[dA][dC][dD][dY][dP][dE][dW][dQ][dW][dL][dC][dA][dA]G[dK][dK]-NH2 (disulfide 3-12 (inferred)) [PIE7-GKK]	nM	380

stdin: Look up IC50, HXB2 pseudovirion entry: Ac-[dK]G[dA][dC][dD][dY][dP][dE][dW][dQ][dW][dL][dC][dA][dA]-NH2 (disulfide 4-13 (inferred); also: dimer linked N- to C-terminal by PEG5 spacer) [N5C(PIE7)2]
stdout: 0.58
